- PROCEDURE DETAILS: HEp-2 CC50 (cytotoxicity in uninfected HEp-2 cells)
- Format: cell-based
- CONDITION DETAILS: human, CellTiter Glo
OBSERVABLE: CC50 at 4 days

Input line: Endpoint output: CC50 at 4 days of CC(=O)O[C@H]1[C@H](c2ccc3c(N)ncnn23)O[C@](CF)(CO[P@@](=O)(N[C@@H](C)C(=O)OC(C)C)Oc2ccccc2)[C@H]1OC(C)=O . Value?
Output line: > 100 µM

Input line: Endpoint output: CC50 at 4 days of CC(C)C(=O)O[C@H]1[C@H](c2ccc3c(N)ncnn23)O[C@](CF)(COP(=O)(N[C@@H](C)C(=O)OC2CCCCC2)Oc2ccccc2)[C@H]1OC(=O)C(C)C (single isomer, unassigned) . Value?
Output line: 19.1 µM

Input line: Endpoint output: CC50 at 4 days of COC(C)(C)COC(=O)[C@H](C)NP(=O)(OC[C@@]1(CF)O[C@@H](c2ccc3c(N)ncnn23)[C@H](O)[C@@H]1O)Oc1ccccc1 (stereo partly drawn) . Value?
Output line: > 100 µM

---

- PROCEDURE DETAILS: Huh-7 CC50 (CellTiter Glo viability)
- Type: cell-based, Human
- CONDITION DETAILS: human, Huh7 hepatocarcinoma cells
Kindly supply the reported CC50 at 48 h values for the records listed here.

Input line: Endpoint output: CC50 at 48 h of C[C@H](NP(=O)(OC[C@@]1(CF)O[C@@H](c2ccc3c(N)ncnn23)[C@H](O)[C@@H]1O)Oc1ccccc1)C(=O)O[C@@H]1CCN(C)C1 (some centres unmarked) . Value?
Output line: > 25 µM

Input line: Endpoint output: CC50 at 48 h of C[C@H](N[P@](=O)(OC[C@@]1(CF)O[C@@H](c2ccc3c(N)ncnn23)[C@H](O)[C@@H]1O)Oc1ccccc1)C(=O)OC1COC1 . Value?
Output line: > 25 µM

Input line: Endpoint output: CC50 at 48 h of CCOC(=O)[C@@H](NP(=O)(OC[C@@]1(CF)O[C@@H](c2ccc3c(N)ncnn23)[C@H](O)[C@@H]1O)Oc1ccccc1)C(C)C (some centres unmarked) . Value?
Output line: > 25 µM

Input line: Endpoint output: CC50 at 48 h of CCC(=O)O[C@H]1[C@H](c2ccc3c(N)ncnn23)O[C@](CF)(CO[P@@](=O)(N[C@@H](C)C(=O)OC(C)C)Oc2ccccc2)[C@H]1OC(=O)CC . Value?
Output line: > 25 µM

Input line: Endpoint output: CC50 at 48 h of CCC(=O)O[C@H]1[C@H](c2ccc3c(N)ncnn23)O[C@](CF)(CO[P@@](=O)(N[C@@H](C)C(=O)OCC(CC)CC)Oc2ccccc2)[C@H]1OC(=O)CC (single isomer, unassigned) . Value?
Output line: 15 µM

Input line: Endpoint output: CC50 at 48 h of CCCCCCOC(=O)[C@H](C)N[P@](=O)(OC[C@@]1(CF)O[C@@H](c2ccc3c(N)ncnn23)[C@H](O)[C@@H]1O)Oc1ccccc1 (single isomer, unassigned) . Value?
Output line: > 25 µM

Input line: Endpoint output: CC50 at 48 h of CC(=O)O[C@H]1[C@H](c2ccc3c(N)ncnn23)O[C@](CF)(CO[P@@](=O)(N[C@@H](C)C(=O)OC(C)C)Oc2ccccc2)[C@H]1OC(C)=O . Value?
Output line: > 25 µM

Input line: Endpoint output: CC50 at 48 h of CCCCCCOC(=O)[C@H](C)NP(=O)(OC[C@@]1(CF)O[C@@H](c2ccc3c(N)ncnn23)[C@H](O)[C@@H]1O)Oc1ccccc1 (some centres unmarked) . Value?
Output line: > 25 µM

Input line: Endpoint output: CC50 at 48 h of CC(C)C(=O)O[C@H]1[C@H](c2ccc3c(N)ncnn23)O[C@](CF)(COP(=O)(N[C@@H](C)C(=O)OC2CCCCC2)Oc2ccccc2)[C@H]1OC(=O)C(C)C (single isomer, unassigned) . Value?
Output line: 10.7 µM

Input line: Endpoint output: CC50 at 48 h of COC(=O)[C@H](C)NP(=O)(OC[C@@]1(CF)O[C@@H](c2ccc3c(N)ncnn23)[C@H](OC(=O)C(C)C)[C@@H]1OC(=O)C(C)C)Oc1ccccc1 (single isomer, unassigned) . Value?
Output line: > 18.8 µM

Input line: Endpoint output: CC50 at 48 h of C[C@H](NP(=O)(OC[C@@]1(CF)O[C@@H](c2ccc3c(N)ncnn23)[C@H](O)[C@@H]1O)Oc1ccccc1)C(=O)OC1CCC1 (some centres unmarked) . Value?
Output line: 13 µM
